- MEASUREMENT_TARGET: T1, recombinant human C1r2s2 tetramer (human, UniProt P09871 16-688; P00736 18-705)
- T1 construct: C1s and C1r co-expressed in HEK293/FreeStyle 293-F and purified from conditioned medium
- T1 chain 1: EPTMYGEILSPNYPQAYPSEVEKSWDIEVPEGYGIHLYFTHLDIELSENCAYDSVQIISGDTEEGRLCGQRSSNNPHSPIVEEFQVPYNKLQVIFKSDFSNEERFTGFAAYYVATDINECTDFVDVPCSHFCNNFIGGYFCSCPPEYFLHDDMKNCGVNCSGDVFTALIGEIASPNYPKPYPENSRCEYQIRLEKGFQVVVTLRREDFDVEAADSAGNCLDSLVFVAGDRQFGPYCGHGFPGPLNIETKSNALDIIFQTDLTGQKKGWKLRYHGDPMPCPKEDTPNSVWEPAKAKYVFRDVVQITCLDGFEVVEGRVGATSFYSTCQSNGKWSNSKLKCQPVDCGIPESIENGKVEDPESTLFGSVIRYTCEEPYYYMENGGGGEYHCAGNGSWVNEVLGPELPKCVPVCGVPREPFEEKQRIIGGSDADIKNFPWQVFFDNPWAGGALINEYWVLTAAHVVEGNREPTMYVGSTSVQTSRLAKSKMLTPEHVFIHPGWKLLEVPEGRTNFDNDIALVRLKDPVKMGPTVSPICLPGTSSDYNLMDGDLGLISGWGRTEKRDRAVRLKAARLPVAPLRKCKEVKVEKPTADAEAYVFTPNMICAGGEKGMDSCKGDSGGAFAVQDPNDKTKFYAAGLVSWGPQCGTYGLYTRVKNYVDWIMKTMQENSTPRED
- T1 chain 2: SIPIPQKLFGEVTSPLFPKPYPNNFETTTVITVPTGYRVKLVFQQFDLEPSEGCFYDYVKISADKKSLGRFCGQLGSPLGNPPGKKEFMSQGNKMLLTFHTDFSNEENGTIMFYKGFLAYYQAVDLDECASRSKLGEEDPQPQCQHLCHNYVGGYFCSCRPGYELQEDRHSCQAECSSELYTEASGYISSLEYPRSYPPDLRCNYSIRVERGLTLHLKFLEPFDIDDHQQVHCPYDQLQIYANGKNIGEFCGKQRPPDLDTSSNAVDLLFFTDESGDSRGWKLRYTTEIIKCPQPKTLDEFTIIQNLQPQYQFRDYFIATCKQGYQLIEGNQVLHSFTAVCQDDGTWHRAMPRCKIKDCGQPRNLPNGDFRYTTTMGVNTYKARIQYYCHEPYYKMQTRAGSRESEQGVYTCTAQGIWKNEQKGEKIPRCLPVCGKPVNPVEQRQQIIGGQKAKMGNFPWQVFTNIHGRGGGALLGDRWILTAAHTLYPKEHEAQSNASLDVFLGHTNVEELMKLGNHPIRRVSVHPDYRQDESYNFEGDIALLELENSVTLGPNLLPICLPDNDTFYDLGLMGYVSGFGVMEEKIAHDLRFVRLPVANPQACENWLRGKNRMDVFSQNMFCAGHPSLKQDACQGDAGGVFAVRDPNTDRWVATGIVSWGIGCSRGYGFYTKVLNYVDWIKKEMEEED
- PROTOCOL_TEXT: SPR (BIACORE T200), 37 C, ratio of KD at pH 5.8 to KD at pH 7.4
Overview of reported KD (pH 5.8)/KD (pH 7.4) across a group of binders:

- COS0637pHv9-TT91R (antibody, V domains shown) VH: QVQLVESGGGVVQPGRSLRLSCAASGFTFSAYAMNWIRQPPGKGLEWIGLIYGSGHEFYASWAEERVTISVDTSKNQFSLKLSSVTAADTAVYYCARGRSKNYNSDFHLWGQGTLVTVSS VL: DIQMTQSPSSLSASVGDRVTITCQANQILHDKKNLAWYQQKPGQPPKLLIYQASQRESGVPSRFSGSGSGTDFTLTISSLQPEDFATYYCHGEFPYESADLNTFGQGTKVEIKR: 45
- COS0637pHv4-TT91R (antibody, V domains shown) VH: QVQLVESGGGVVQPGRSLRLSCAASGFSFSAYAMNWIRQPPGKGLEWIGLIYGSGHEFYASWAEERVTISVDTSKNQFSLKLSSVTAADTAVYYCARGRSKNYVSGFHLWGQGTLVTVSS VL: DIQMTQSPSSLSASVGDRVTITCQASQILHDKKNLAWYQQKPGQPPKLLIYQASQLESGVPSRFSGSGSGTDFTLTISSLQPEDFATYYCHGEFSYESADLNQFGQGTKVEIKR: 99

Then this binder:
Input: Read the entry COS0637pHv6-TT91R (antibody, V domains shown) VH: QVQLVESGGGVVQPGRSLRLSCAASGFSFSAYAMNWIRQPPGKGLEWIGLIYGSGHEFYASWAEERVTISVDTSKNQFSLKLSSVTAADTAVYYCARGRSKNYVSGFHLWGQGTLVTVSS VL: DIQMTQSPSSLSASVGDRVTITCQAQQILHDKRNLAWYQQKPGQPPKLLIYQASQLESGVPSRFSGSGSGTDFTLTISSLQPEDFATYYCHGEFSYESADLNTFGQGTKVEIKR and write its reported KD (pH 5.8)/KD (pH 7.4).
Output: 100
